Target Under Test: RORγt (Homo sapiens, UniProt P51449)
Protocol: Jurkat Reporter Test (human IL-17 ROR response element luciferase, RORγt vector)
Format: cell-based
Test Parameters: Jurkat, read-out: inhibitory rate (%)
Assay Metric: inhibition at 3 µM (%)

>  <Molecule>
CCn1c2ccccc2c2cc(NC(=O)C(C)CCC(=O)Nc3ccc(C#N)c(Cl)c3)ccc21 (centres unmarked)

>  <Target Under Test>
RORγt (Homo sapiens, UniProt P51449)

>  <Assay Metric>
inhibition at 3 µM

>  <Observed Measurement>
104

$$$$
>  <Molecule>
CCn1c2ccccc2c2cc(C(=O)NCC(C)CC(=O)Nc3ccc(C#N)c(Cl)c3)ccc21 (centres unmarked)

>  <Target Under Test>
RORγt (Homo sapiens, UniProt P51449)

>  <Assay Metric>
inhibition at 3 µM

>  <Observed Measurement>
115

$$$$
>  <Molecule>
CCn1c2ccccc2c2cc(NC(=O)CC(CC(=O)Nc3ccc(C#N)c(Cl)c3)c3ccccc3)ccc21 (centres unmarked)

>  <Target Under Test>
RORγt (Homo sapiens, UniProt P51449)

>  <Assay Metric>
inhibition at 3 µM

>  <Observed Measurement>
93.2

$$$$
>  <Molecule>
CCn1c2ccccc2c2cc(NC(=O)C3CCC3C(=O)Nc3ccc(C#N)c(Cl)c3)ccc21 (centres unmarked)

>  <Target Under Test>
RORγt (Homo sapiens, UniProt P51449)

>  <Assay Metric>
inhibition at 3 µM

>  <Observed Measurement>
99.3

$$$$
>  <Molecule>
CCn1c2ccccc2c2cc(NC(=O)CCC(C)C(=O)Nc3ccc(C#N)c(Cl)c3)ccc21 (centres unmarked)

>  <Target Under Test>
RORγt (Homo sapiens, UniProt P51449)

>  <Assay Metric>
inhibition at 3 µM

>  <Observed Measurement>
104

$$$$

====

Target Under Test: RORγt (Homo sapiens, UniProt P51449)
Protocol: Cofactor Recruitment Test (Alpha Screen, biotinylated SRC-1 peptide)
Assay type: biochemical
Set-up: histidine tag (implied by the Histidine Detection Kit)
Test Parameters: signal value inhibitory rate at test compound 1 μM
// reported inhibition at 1 µM per item
Assay Metric: inhibition at 1 µM (%)

>  <Compound>
CCn1c2ccccc2c2cc(NC(=O)CC(C)CCOc3ccc(C#N)c(C)c3)ccc21 (centres unmarked)

>  <Unit Abbreviation>
%

>  <Observed Measurement>
98.7

$$$$
>  <Compound>
CCn1c2ccccc2c2cc(NC(=O)CC(C)CCOc3ccc(C#N)c(Cl)c3)ccc21 (centres unmarked)

>  <Unit Abbreviation>
%

>  <Observed Measurement>
102

$$$$
>  <Compound>
CCCn1c2c(c3cc(NC(=O)CC(C)CC(=O)Nc4ccc(C#N)cc4)ccc31)CCCC2 (centres unmarked)

>  <Unit Abbreviation>
%

>  <Observed Measurement>
101

$$$$
>  <Compound>
CCn1c2ccccc2c2cc(NC(=O)CC(C)CCOc3ccc(C#N)c(C#N)c3)ccc21 (centres unmarked)

>  <Unit Abbreviation>
%

>  <Observed Measurement>
104

$$$$
>  <Compound>
CCn1c2ccccc2c2cc(NC(=O)CC(C)CC(=O)Nc3ccc(C#N)c(OC)c3)ccc21 (centres unmarked)

>  <Unit Abbreviation>
%

>  <Observed Measurement>
100

$$$$
>  <Compound>
CCn1c2ccccc2c2cc(C(=O)NCC(C)CC(=O)Nc3ccc(C#N)c(Cl)c3)ccc21 (centres unmarked)

>  <Unit Abbreviation>
%

>  <Observed Measurement>
106

$$$$
>  <Compound>
CCn1c2ccccc2c2cc(NC(=O)C3CCC3C(=O)Nc3ccc(C#N)c(Cl)c3)ccc21 (centres unmarked)

>  <Unit Abbreviation>
%

>  <Observed Measurement>
102

$$$$
>  <Compound>
CCn1c2ccccc2c2cc(NC(=O)CC(CC(=O)Nc3ccc(C#N)c(Cl)c3)c3ccccc3)ccc21 (centres unmarked)

>  <Unit Abbreviation>
%

>  <Observed Measurement>
102

$$$$

====

The following molecules are listed with their measured inhibition at 1 µM values.
Target Under Test: RORγt (Homo sapiens, UniProt P51449)
Sequence (P51449 1-497 isoform P51449-2): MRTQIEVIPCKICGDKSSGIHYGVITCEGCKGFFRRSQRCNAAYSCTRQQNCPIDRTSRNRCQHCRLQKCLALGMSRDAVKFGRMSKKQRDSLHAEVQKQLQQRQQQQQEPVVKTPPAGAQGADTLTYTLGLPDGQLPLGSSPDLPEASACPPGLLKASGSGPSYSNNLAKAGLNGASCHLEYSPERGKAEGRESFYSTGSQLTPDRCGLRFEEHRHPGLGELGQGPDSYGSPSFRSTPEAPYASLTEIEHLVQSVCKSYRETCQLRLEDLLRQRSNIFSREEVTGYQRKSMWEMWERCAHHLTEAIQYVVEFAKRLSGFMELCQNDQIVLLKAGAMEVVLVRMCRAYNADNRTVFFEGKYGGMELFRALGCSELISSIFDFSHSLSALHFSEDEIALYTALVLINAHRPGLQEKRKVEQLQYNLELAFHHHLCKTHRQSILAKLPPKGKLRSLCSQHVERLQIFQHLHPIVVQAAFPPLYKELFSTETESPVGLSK
Protocol: Cofactor Recruitment Test (Alpha Screen, biotinylated SRC-1 peptide)
Format: biochemical
Design: histidine tag (implied by the Histidine Detection Kit)
Test Parameters: signal value inhibitory rate at test compound 1 μM

>  <Molecule>
CCn1c2ccccc2c2cc(NC(=O)CSCC(=O)Nc3ccc(C#N)cc3)ccc21

>  <Unit Abbreviation>
%

>  <inhibition at 1 µM>
101

$$$$
>  <Molecule>
CCn1c2ccccc2c2cc(NC(=O)C(C)CCC(=O)Nc3ccc(C#N)c(Cl)c3)ccc21 (stereo not shown)

>  <Unit Abbreviation>
%

>  <inhibition at 1 µM>
101

$$$$
>  <Molecule>
CCn1c2ccccc2c2cc(NC(=O)C[S+]([O-])CC(=O)Nc3ccc(C#N)cc3)ccc21 (stereo not shown)

>  <Unit Abbreviation>
%

>  <inhibition at 1 µM>
103

$$$$
>  <Molecule>
CCn1c2ccccc2c2cc(NC(=O)CCC(C)C(=O)Nc3ccc(C#N)c(Cl)c3)ccc21 (stereo not shown)

>  <Unit Abbreviation>
%

>  <inhibition at 1 µM>
102

$$$$

====

Target Under Test: RORγt (Homo sapiens)
Protocol: RORγt Binding Test (TR-FRET, fluorescent-labeled cholesterol)
Design: histidine tag (implied by the Histidine Detection Kit)
Test Parameters: binding inhibitory rate of fluorescent-labeled cholesterol to RORγt at test compound 1 μM

>  <Compound>
CC(C)Cn1c2c(c3cc(NC(=O)CC(C)CC(=O)Nc4ccc(C#N)cc4)ccc31)CCCC2 (centres unmarked)

>  <Target Under Test>
RORγt (Homo sapiens)

>  <inhibition at 1 µM / %>
98.7

$$$$
>  <Compound>
CCn1c(C)c(C)c2cc(NC(=O)CC(C)CC(=O)Nc3ccc(C#N)cc3)ccc21 (centres unmarked)

>  <Target Under Test>
RORγt (Homo sapiens)

>  <inhibition at 1 µM / %>
88.2

$$$$
>  <Compound>
CCn1c2ccccc2c2cc(NC(=O)CC(C)CCOc3ccc(C#N)c(C)c3)ccc21 (centres unmarked)

>  <Target Under Test>
RORγt (Homo sapiens)

>  <inhibition at 1 µM / %>
62.9

$$$$
>  <Compound>
CCCn1c2c(c3cc(NC(=O)CC(C)CC(=O)Nc4ccc(C#N)cc4)ccc31)CCCC2 (centres unmarked)

>  <Target Under Test>
RORγt (Homo sapiens)

>  <inhibition at 1 µM / %>
98.9

$$$$
>  <Compound>
CCn1c2ccccc2c2cc(NC(=O)C[S+]([O-])CC(=O)Nc3ccc(C#N)cc3)ccc21 (centres unmarked)

>  <Target Under Test>
RORγt (Homo sapiens)

>  <inhibition at 1 µM / %>
94.6

$$$$
>  <Compound>
CCn1c2ccccc2c2cc(NC(=O)CSCC(=O)Nc3ccc(C#N)cc3)ccc21

>  <Target Under Test>
RORγt (Homo sapiens)

>  <inhibition at 1 µM / %>
98.9

$$$$
>  <Compound>
CCn1c2ccccc2c2cc(NC(=O)CC(C)CC(=O)Nc3ccc(C#N)cn3)ccc21 (centres unmarked)

>  <Target Under Test>
RORγt (Homo sapiens)

>  <inhibition at 1 µM / %>
88.8

$$$$
>  <Compound>
CCn1c2ccccc2c2cc(NC(=O)CC(C)CC(=O)Nc3ccc(C#N)c(OC)c3)ccc21 (centres unmarked)

>  <Target Under Test>
RORγt (Homo sapiens)

>  <inhibition at 1 µM / %>
93.4

$$$$
>  <Compound>
CCn1c2ccccc2c2cc(NC(=O)CC(C)(O)CCOc3ccc(C#N)c(Cl)c3)ccc21 (centres unmarked)

>  <Target Under Test>
RORγt (Homo sapiens)

>  <inhibition at 1 µM / %>
94.4

$$$$
>  <Compound>
CCn1c2ccccc2c2cc(NC(=O)CC(C)CCOc3ccc(C#N)c(Cl)c3)ccc21 (centres unmarked)

>  <Target Under Test>
RORγt (Homo sapiens)

>  <inhibition at 1 µM / %>
91.9

$$$$
>  <Compound>
CCn1c2ccccc2c2cc(NC(=O)CC(C)CCOc3ccc(C#N)c(C#N)c3)ccc21 (centres unmarked)

>  <Target Under Test>
RORγt (Homo sapiens)

>  <inhibition at 1 µM / %>
82.2

$$$$
>  <Compound>
CCn1c2ccccc2c2cc(NC(=O)C3CCC3C(=O)Nc3ccc(C#N)c(Cl)c3)ccc21 (centres unmarked)

>  <Target Under Test>
RORγt (Homo sapiens)

>  <inhibition at 1 µM / %>
96.3

$$$$
>  <Compound>
CCn1c2ccccc2c2cc(NC(=O)CC(CC(=O)Nc3ccc(C#N)c(Cl)c3)c3ccccc3)ccc21 (centres unmarked)

>  <Target Under Test>
RORγt (Homo sapiens)

>  <inhibition at 1 µM / %>
91.4

$$$$
>  <Compound>
CCn1c2ccccc2c2cc(C(=O)NCC(C)CC(=O)Nc3ccc(C#N)c(Cl)c3)ccc21 (centres unmarked)

>  <Target Under Test>
RORγt (Homo sapiens)

>  <inhibition at 1 µM / %>
104

$$$$
>  <Compound>
CCn1c2ccccc2c2cc(NC(=O)CC(C)CC(=O)Nc3ccc(C#N)nc3)ccc21 (centres unmarked)

>  <Target Under Test>
RORγt (Homo sapiens)

>  <inhibition at 1 µM / %>
93.9

$$$$
>  <Compound>
CCn1c2ccccc2c2cc(NC(=O)C(C)CCC(=O)Nc3ccc(C#N)c(Cl)c3)ccc21 (centres unmarked)

>  <Target Under Test>
RORγt (Homo sapiens)

>  <inhibition at 1 µM / %>
101

$$$$
>  <Compound>
CCn1c2ccccc2c2cc(NC(=O)CCC(C)C(=O)Nc3ccc(C#N)c(Cl)c3)ccc21 (centres unmarked)

>  <Target Under Test>
RORγt (Homo sapiens)

>  <inhibition at 1 µM / %>
100

$$$$
